Target: recombinant human stromelysin (Homo sapiens)
Construct: recombinant human stromelysin (mol. wt. 45-47 kDa, 2 Units)
Sequence (P08254 100-477): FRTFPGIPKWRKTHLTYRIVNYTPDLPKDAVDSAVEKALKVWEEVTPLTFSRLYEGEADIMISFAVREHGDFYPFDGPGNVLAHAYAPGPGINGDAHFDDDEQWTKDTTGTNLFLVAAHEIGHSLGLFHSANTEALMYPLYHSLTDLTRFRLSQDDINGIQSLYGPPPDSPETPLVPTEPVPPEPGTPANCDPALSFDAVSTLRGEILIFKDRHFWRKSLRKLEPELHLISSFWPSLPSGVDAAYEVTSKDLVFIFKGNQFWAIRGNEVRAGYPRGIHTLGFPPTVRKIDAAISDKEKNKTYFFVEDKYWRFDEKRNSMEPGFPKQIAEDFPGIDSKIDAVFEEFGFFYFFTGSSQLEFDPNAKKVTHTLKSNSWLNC
Assay: Inhibition of stromelysin activity (hydrolysis of Substance P)
Conditions: 30 min at 37° C.
Where a name gives a salt, the structure may show the parent alone.
attribute_measured: IC50

compound="CCCO[C@H]1CC[C@H]([C@H](C(=O)NO)N(Cc2ccncc2)S(=O)(=O)c2ccc(OC)cc2)CC1 [Example 1, hydrochloride]" experimental_result="~0.016 µM"
compound="CCCO[C@H]1CC[C@H]([C@H](C(=O)NO)N(Cc2ccncc2)S(=O)(=O)c2ccc(OCC)cc2)CC1.Cl [2(u), hydrochloride]" experimental_result="~0.011 µM"

Value source: patent US5770624A
